Documented pKa across a set of compounds
- assay procedure: pKa of curing accelerator (dissociation constant of aqueous solution at 25° C.)
- Type: physicochemical
- run conditions: aqueous solution, of the curing accelerator; Table 1; read-out: pKa
Keep the answer to the number alone.

[
  {
    "entry smiles": "Cc1ncc[nH]1",
    "pKa": 7.9
  }
]

Lab book: pKa of Nc1nc(N)nc(N)n1 noted as 5

---

- assay procedure: pKa of curing accelerator (dissociation constant of aqueous solution at 25° C.)
- Format: physicochemical
- run conditions: aqueous solution at 25° C.; values in text; read-out: pKa
measured property: pKa

Lab book: pKa of Nc1nc(N)nc(N)n1 [melamine] noted as 5
